# Settings: in acetone, 293.15 K
Metric name: solubility (mole fraction)
Give bare numbers.

Exercise: Given NC(N)=S , state its recorded solubility (mole fraction).
Solution: 0.0375

====

# Settings: in 2-butanone, 303.15 K
Metric name: solubility (mole fraction)

Exercise: Bench note: what solubility (mole fraction) did NC(N)=S show?
Solution: 0.0203

====

# Settings: in 2-butanone, 298.15 K
Metric name: solubility (mole fraction)
Numbers only.

Exercise: Which value of solubility (mole fraction) has been reported for NC(N)=S in the records?
Solution: 0.0189

====

# Settings: in ethyl acetate, 308.15 K
Metric name: solubility (mole fraction)
Give bare numbers.

Exercise: I would be grateful if you could share the reported solubility (mole fraction) for NC(N)=S .
Solution: 0.00664

====

# Settings: in n-propanol, 288.15 K
Metric name: solubility (mole fraction)
Numbers only.

Exercise: Can you look up the measured solubility (mole fraction) of NC(N)=S for me?
Solution: 0.0143

====

# Settings: in water, 313.15 K
Metric name: solubility (mole fraction)
Numbers only.

Exercise: Find the recorded solubility (mole fraction) belonging to NC(N)=S and report it.
Solution: 0.0701

====

# Settings: in methyl acetate, 293.15 K
Metric name: solubility (mole fraction)
One number for each entry.

Exercise: Fill in: solubility (mole fraction) of NC(N)=S is ___
Solution: 0.00673

====

# Settings: in ethanol, 293.15 K
Metric name: solubility (mole fraction)
One number for each entry.

Exercise: Item NC(N)=S has what recorded solubility (mole fraction)?
Solution: 0.0227

====

# Settings: in 2-butanone, 308.15 K
Metric name: solubility (mole fraction)
Answers are plain numbers.

Exercise: Consider the molecule NC(N)=S and give its measured solubility (mole fraction).
Solution: 0.0219

====

# Settings: in n-propanol, 283.15 K
Metric name: solubility (mole fraction)

Exercise: Using the record for NC(N)=S , report its solubility (mole fraction).
Solution: 0.0128

====

# Settings: in methyl acetate, 308.15 K
Metric name: solubility (mole fraction)
One number for each entry.

Exercise: Reported solubility (mole fraction) for NC(N)=S : what is it?
Solution: 0.00885

====

# Settings: in isopropanol, 318.15 K
Metric name: solubility (mole fraction)

Exercise: What solubility (mole fraction) value was documented for this molecule, NC(N)=S ?
Solution: 0.0308

====

# Settings: in methanol, 303.15 K
Metric name: solubility (mole fraction)
Give bare numbers.

Exercise: Report solubility (mole fraction) for NC(N)=S please.
Solution: 0.0644

====

# Settings: in isobutanol, 303.15 K
Metric name: solubility (mole fraction)
Give bare numbers.

Exercise: Which solubility (mole fraction) value belongs to NC(N)=S ?
Solution: 0.0152

====

# Settings: in isopropanol, 308.15 K
Metric name: solubility (mole fraction)

Exercise: Consider the compound shown here: NC(N)=S What is its recorded solubility (mole fraction)?
Solution: 0.0246

====

# Settings: in ethanol, 313.15 K
Metric name: solubility (mole fraction)
Give bare numbers.

Exercise: Given NC(N)=S , state its recorded solubility (mole fraction).
Solution: 0.0353

====

# Settings: in isobutanol, 283.15 K
Metric name: solubility (mole fraction)
One number for each entry.

Exercise: Consider the molecule shown here: NC(N)=S What is its recorded solubility (mole fraction)?
Solution: 0.00827

====

# Settings: in methyl acetate, 298.15 K
Metric name: solubility (mole fraction)
Give bare numbers.

Exercise: I would be grateful if you could share the reported solubility (mole fraction) for NC(N)=S .
Solution: 0.00747
